src = paper PMC11809490

# System: HEK293
# experimentNotes: MTT assay, cytotoxicity to normal cells
# Format: cell-based, human
# protocolConditions: Homo sapiens, HEK293, 48 h, read-out: IC50 HEK293
Consider the following compounds; for each one, report its IC50.
One number for each entry, in µM.

In the examples that follow, each entry is paired with its recorded IC50.
[[record]]
compound = "N#CC(=Cc1cn(Cc2ccc(Cl)cc2)c2ccccc12)C(=O)c1c[nH]c2ccccc12 [21b]"
measvalue = 40

[[record]]
compound = "CCOc1ccc2[nH]cc(C(=O)C(C#N)=Cc3cn(C)c4ccccc34)c2c1 [21h]"
measvalue = 40

[[record]]
compound = "CCn1cc(C=C(C#N)C(=O)c2c[nH]c3ccc(OC)cc23)c2ccccc21 [21d]"
measvalue = 39.2

[[record]]
compound = "CCCOc1ccc2[nH]cc(C(=O)C(C#N)=Cc3cn(C)c4ccccc34)c2c1 [21k]"
measvalue = 39.8

[[record]]
compound = "COc1ccc(C=C(C#N)C(=O)c2c[nH]c3ccccc23)cc1OC [21r]"
measvalue = 31


In the following, a different compound is considered.
INPUT: Which IC50 is reported for this compound? CCn1cc(C=C(C#N)C(=O)c2c[nH]c3cc(OC)ccc23)c2ccccc21 [21f]
OUTPUT: 40

====

# System: prostate, breast, epithelial cancer cells
# experimentNotes: MTT assay, all tested cancer cell lines together
# Assay type: cell-based, human
reportedProperty: cytotoxicity against the tested cancer cells, in words (SAR)

[[record]]
compound = "COc1ccc2c(C(=O)C(C#N)=Cc3cn(Cc4ccc(Cl)cc4)c4ccccc34)c[nH]c2c1 [21g]"
measuredtarget = "prostate, breast, epithelial cancer cells"
measvalue = "reduced activity"

[[record]]
compound = "CCn1cc(C=C(C#N)C(=O)c2c[nH]c3cc(OC)ccc23)c2ccccc21 [21f]"
measuredtarget = "prostate, breast, epithelial cancer cells"
measvalue = "reduced activity"

[[record]]
compound = "COc1ccc2c(C(=O)C(C#N)=Cc3cn(C)c4ccccc34)c[nH]c2c1 [21e]"
measuredtarget = "prostate, breast, epithelial cancer cells"
measvalue = "reduced activity"


====

# Test system: 22Rv1
# experimentNotes: MTT assay, cytotoxicity
# Format: cell-based, human
# protocolConditions: Homo sapiens, 22Rv1, 48 h, read-out: IC50 22Rv1
Give IC50 for every item shown.
One number for each entry, in µM.

A selection of reference data follows.
[[record]]
compound = "COc1ccc2c(C(=O)C(C#N)=Cc3cn(C)c4ccccc34)c[nH]c2c1 [21e]"
reportedproperty = "IC50"
measvalue = 28

[[record]]
compound = "CCn1cc(C=C(C#N)C(=O)c2c[nH]c3ccc(OC)cc23)c2ccccc21 [21d]"
reportedproperty = "IC50"
measvalue = 25

[[record]]
compound = "COc1ccc2[nH]cc(C(=O)C(C#N)=Cc3cn(C)c4ccccc34)c2c1 [21c]"
reportedproperty = "IC50"
measvalue = 1.23


Give one value of IC50 per listed compound.
1. CCCOc1ccc2[nH]cc(C(=O)C(C#N)=Cc3cn(CC)c4ccccc34)c2c1 [21j]
2. CCOc1ccc2[nH]cc(C(=O)C(C#N)=Cc3cn(CC)c4ccccc34)c2c1 [21i]
3. COc1ccc2c(C(=O)C(C#N)=Cc3cn(Cc4ccc(Cl)cc4)c4ccccc34)c[nH]c2c1 [21g]

OUTPUT:
[2.9, 8.9, 34]

====

# System: 22Rv1
# experimentNotes: MTT assay, cytotoxicity
# Assay type: cell-based, human
# protocolConditions: Homo sapiens, 22Rv1, 48 h, read-out: IC50 22Rv1
I'd appreciate it if you could supply pIC50 values for the items below.
Answers are plain numbers, as −log10 of the molar value.

Worked examples follow.
[[record]]
compound = "COc1ccc(C=C(C#N)C(=O)c2c[nH]c3ccccc23)cc1 [21q]"
measvalue = 4.55

[[record]]
compound = "CCOc1ccc2[nH]cc(C(=O)C(C#N)=Cc3cn(C)c4ccccc34)c2c1 [21h]"
measvalue = 5.28

[[record]]
compound = "CCn1cc(C=C(C#N)C(=O)c2c[nH]c3cc(OC)c(OC)cc23)c2ccccc21 [21o]"
measvalue = 4.59

[[record]]
compound = "CCCOc1ccc2[nH]cc(C(=O)C(C#N)=Cc3cn(C)c4ccccc34)c2c1 [21k]"
measvalue = 4.55

[[record]]
compound = "N#CC(=Cc1cn(Cc2ccc(Cl)cc2)c2ccccc12)C(=O)c1c[nH]c2ccccc12 [21b]"
measvalue = 4.67


Quick batch: pIC50 for everything below.
1. COc1ccc(C=C(C#N)C(=O)c2c[nH]c3ccccc23)cc1OC [21r]
2. COc1cc2[nH]cc(C(=O)C(C#N)=Cc3cn(C)c4ccccc34)c2cc1OC [21n]

OUTPUT:
4.47
4.69

====

For each record, write down the corresponding IC50.
# Tested on: HEK293
# experimentNotes: MTT assay, cytotoxicity to normal cells
# Type: cell-based, human
# protocolConditions: Homo sapiens, HEK293, 48 h, read-out: IC50 HEK293

Each compound below has a recorded value; state its IC50.
1. CCOc1ccc2[nH]cc(C(=O)C(C#N)=Cc3cn(CC)c4ccccc34)c2c1 [21i]
2. CCn1cc(C=C(C#N)C(=O)c2c[nH]c3cc(OC)c(OC)cc23)c2ccccc21 [21o]
3. COc1ccc2c(C(=O)C(C#N)=Cc3cn(C)c4ccccc34)c[nH]c2c1 [21e]

OUTPUT:
> 40 µM
> 40 µM
> 40 µM
